PROCEDURE_DETAILS: qHTS for Inhibitors of human tyrosyl-DNA phosphodiesterase 1 (TDP1): qHTS in cells in absence of CPT; also: nearly all actives have a fitted effect of over 55% in size
RECORDED_CONDITIONS: DT40 Tdp1-/- hTDP1 cells, no CPT, ATP luminescence, 48 h
Hit rate of the full screen: of about 420,000 compounds, about 64,000 (15%) were called active. Not shown: some 27% with an inconclusive outcome. Calls follow the shape of the dose curve; as a rule, active = well fitted inhibition curve with a large enough effect; inconclusive = small, poorly fitted or top-dose-only effect; inactive = flat fitted curve, though single readings scatter. Not all results are given here.
The reply should name one outcome from active, inactive

Please review the following examples before continuing.
O=C(CSc1nnc(-c2ccncc2)n1C1CCCCC1)Nc1ccccc1	inactive
Cc1cccc(N2CCN(C(c3ccccc3)c3nnnn3CC3CCCO3)CC2)c1C (centres undefined)	active
CCOC(=O)c1csc(CCNC(=O)c2oc3c(Cl)cc(C)cc3c2C)n1	active

In the following, a different molecule is considered.
Test call for this molecule, please: `Cc1ccc2c(=O)cc(C(=O)NCCc3ccc(S(N)(=O)=O)cc3)oc2c1C`
inactive

* * *

PROCEDURE_DETAILS: qHTS for Inhibitors of human tyrosyl-DNA phosphodiesterase 1 (TDP1): qHTS in cells in absence of CPT; also: nearly all actives have a fitted effect of over 55% in size
RECORDED_CONDITIONS: DT40 Tdp1-/- hTDP1 cells, no CPT, ATP luminescence, 48 h
Among all 420,000 compounds or so, about 64,000 (15%) were called active. Roughly 27% stayed inconclusive and do not appear here. Calls come from the whole dose curve; as a rule, active = well fitted inhibition curve with a large enough effect; inconclusive = small, poorly fitted or top-dose-only effect; inactive = flat fitted curve, though single readings scatter. A selection follows.
Write down one outcome, taken from active, inactive

Consider the worked cases shown below.
CCCC(=O)N(CCN1CCOCC1)c1nc2ccc(OCC)cc2s1	inactive
CCCN(CCC)S(=O)(=O)c1ccc(C(=O)N2CC3CCC(CC3)C2)cc1	active
CC(C)(C)c1cc(NC(=O)NN2CCOCC2)nn1-c1c(Cl)cc(Cl)cc1Cl	active
CCCC(=O)N1c2ccc(-c3csc(N)n3)cc2CC1C (stereo not given)	inactive

Outcome logged for `CCOc1cc(/C=N/NC(=O)c2ccncc2)cc(Br)c1O` in this assay:
inactive

Which outcome was assigned to `CCc1ccccc1NC(=O)/C(=C/c1ccccc1)c1ccccc1` in this test?
active

Could you please tell me the result logged for `Cc1ccc(CNC(=O)CCNC(=O)Cn2ccc3ccccc3c2=O)cc1` in this assay?
inactive

* * *

PROCEDURE_DETAILS: qHTS for Inhibitors of human tyrosyl-DNA phosphodiesterase 1 (TDP1): qHTS in cells in absence of CPT; also: nearly all actives have a fitted effect of over 55% in size; also: potency is read from the fitted curve at half-maximal effect
RECORDED_CONDITIONS: DT40 Tdp1-/- hTDP1 cells, no CPT, ATP luminescence, 48 h
In all, about 420,000 compounds went through this assay and about 64,000 (15%) were called active. Not shown: some 27% with an inconclusive outcome. Only a sample is shown.
MEASURE_NAME: Potency

// known answers, use as guide
CCCc1cc(=O)oc2c(C)c(O)c(CN3CCCCC3)cc12	inactive
CCc1nnc(NC(=O)CSc2nc(SC)ns2)s1	inactive
CCCCOc1ccc(Cl)cc1CSc1nncn1N	inactive
COCCCNC(=O)C1CC(=O)N(c2ccc(C)cc2)C1 (stereo not given)	inactive
COc1ccc(CNC(=O)CN2C(=O)NC3(CCCc4sccc43)C2=O)cc1 (stereo not given)	inactive
CCOc1ccc(-c2ccc(SCC(=O)N3CCOCC3)nn2)cc1	inactive

# batch size: 4; output Potency per entry
1. Cc1sc2ncnc(SCC(=O)Nc3ccc(CN4CCCC4)cc3)c2c1C
2. Cc1ccc(Cn2cc(C(=O)NN)c(=O)c3ccc(F)cc32)cc1
3. COc1ccc(C(=O)CN2C(=O)NC3(CCc4ccccc43)C2=O)c(OC)c1 (stereo not given)
4. COC(=O)CSc1nnc(NC(=O)CCc2ccccc2)s1

inactive
inactive
inactive
inactive

* * *

PROCEDURE_DETAILS: qHTS for Inhibitors of human tyrosyl-DNA phosphodiesterase 1 (TDP1): qHTS in cells in absence of CPT; also: nearly all actives have a fitted effect of over 55% in size
RECORDED_CONDITIONS: DT40 Tdp1-/- hTDP1 cells, no CPT, ATP luminescence, 48 h
The campaign covered roughly 420,000 compounds. About 64,000 (15%) were called active. About 27% were inconclusive and are not listed. Calls follow the shape of the dose curve; as a rule, active = well fitted inhibition curve with a large enough effect; inconclusive = small, poorly fitted or top-dose-only effect; inactive = flat fitted curve, though single readings scatter. A selection follows.
# valid calls are active, inactive; nothing else

These solved cases illustrate the format of a correct answer.
CC(Sc1nnc(-c2cccs2)n1C1CC1)C(=O)NCC1CCCO1 (stereo not drawn)	inactive
COc1ccc(-c2cc(C(=O)N(C)Cc3ccc(OC)c(OC)c3OC)c3ccccc3n2)cc1OC	active
Cc1ccc(S(=O)(=O)N2CCC(C(=O)OCC(=O)N3CC(=O)Nc4ccccc43)CC2)cc1	inactive

Could you kindly confirm the outcome this assay logged for `CN(C)c1nc2n(c(=O)n1)CCO2` ?
inactive

Assay result, entry O=C(O)C(CCc1ccccn1)c1ccccc1 (stereo not drawn) — outcome?
inactive

What did this assay record as the result for Cc1ccccc1-n1cc(CNC(=O)C2CCC(=O)N(C3CC3)C2)cn1 (stereo not drawn) ?
inactive

Outcome? `O=C(Nc1cccc2ccccc12)N1CCN(Cc2ccc3c(c2)OCO3)CC1`
inactive

Which outcome was assigned to `O=C(NCCCN1CCOCC1)c1ccc([N+](=O)[O-])cc1[N+](=O)[O-]` in this test?
inactive

* * *

PROCEDURE_DETAILS: qHTS for Inhibitors of human tyrosyl-DNA phosphodiesterase 1 (TDP1): qHTS in cells in absence of CPT; also: nearly all actives have a fitted effect of over 55% in size
RECORDED_CONDITIONS: DT40 Tdp1-/- hTDP1 cells, no CPT, ATP luminescence, 48 h
Among all 420,000 compounds or so, about 64,000 (15%) were called active. Another 27% or so got no clear call; they are omitted. The call rests on the fitted dose curve; in most records, active means well fitted inhibition curve with a large enough effect; inconclusive means small, poorly fitted or top-dose-only effect; inactive means flat fitted curve, though single readings scatter. These entries were drawn from the full list.
Permitted responses: 1.0 for active, 0.0 for inactive

Take a look at these entries with their results.
COC(=O)C1[C@H]2SC(C)(C)C(C(=O)OC)N2C(=O)N1Cc1nc2ccccc2s1 (stereo partly specified)	0.0
CCOC(=O)N1CCN(Cc2oc(CO)cc(=O)c2O)CC1	0.0
C#CCOCCOCCOCCNc1nc(N2CCN(C(=O)C([C@@H](C)CC)n3cc(C(N)COC(=O)C(F)(F)F)nn3)CC2)nc(N2CCN(C(=O)[C@H](Cc3ccc(O)cc3)n3cc(C(N)[C@H](C)CC)nn3)CC2)n1 (stereo partly specified)	0.0
CC1CC(=O)N(CC(=O)Nc2cccc(Cl)c2)c2ccccc2S1(=O)=O (stereo unspecified)	0.0
Cc1ccc2nc(/C(C#N)=C/c3ccc(-c4ccc(C(=O)OC(C)C)cc4)o3)[nH]c2c1	1.0

// outcome(item) with item = `CCc1c(C)sc(NC(=O)OC)c1C(=O)N1CCOCC1`
0.0

Which outcome was entered for the compound `CCOc1ccc(S(=O)(=O)NCCCn2ccnc2)cc1NC(C)=O` in this test?
0.0

Test call, this compound: COc1ccc(N=C2SC(C(=O)Nc3ccc(F)cc3)CC(=O)N2C)cc1 (stereo unspecified)
0.0

* * *

PROCEDURE_DETAILS: qHTS for Inhibitors of human tyrosyl-DNA phosphodiesterase 1 (TDP1): qHTS in cells in absence of CPT; also: nearly all actives have a fitted effect of over 55% in size
RECORDED_CONDITIONS: DT40 Tdp1-/- hTDP1 cells, no CPT, ATP luminescence, 48 h
Out of some 420,000 compounds screened, about 64,000 (15%) were called active. Not shown: some 27% with an inconclusive outcome. Calls come from the whole dose curve; as a rule, active = well fitted inhibition curve with a large enough effect; inconclusive = small, poorly fitted or top-dose-only effect; inactive = flat fitted curve, though single readings scatter. These entries were drawn from the full list.
The categories you may choose from are active, inactive

The examples below pair each entry with its known result.
COc1ccc(-c2csc(NC(=O)c3ccc(N4C(=O)CCC4=O)cc3)n2)cc1OC	inactive
CCOC(=O)CSC1=C(C#N)C(c2sccc2C)CC(=O)N1 (stereo unspecified)	active
CC(C)c1ccc(NC(=O)c2ccc3c(O)c(S(=O)(=O)c4ccccc4)c(=O)[nH]c3c2)cc1	inactive
COc1ccc(CC(=O)Nc2nc(-c3ccc(F)c(F)c3)cs2)cc1OC	active
O=C(Cc1ccccc1Cl)N1CCN(c2ccccn2)CC1	inactive

Field: next compound
In this assay, the call recorded for `COc1cccc(NC(=S)N(Cc2ccc(C)cc2)Cc2ccccn2)c1` was what?
inactive

* * *

PROCEDURE_DETAILS: qHTS for Inhibitors of human tyrosyl-DNA phosphodiesterase 1 (TDP1): qHTS in cells in absence of CPT; also: nearly all actives have a fitted effect of over 55% in size
RECORDED_CONDITIONS: DT40 Tdp1-/- hTDP1 cells, no CPT, ATP luminescence, 48 h
Out of some 420,000 compounds screened, about 64,000 (15%) were called active. Inconclusive results (about 27%) are left out. Calls come from the whole dose curve; as a rule, active = well fitted inhibition curve with a large enough effect; inconclusive = small, poorly fitted or top-dose-only effect; inactive = flat fitted curve, though single readings scatter. Only a sample is shown.
Hello, when you answer, please use one of the following outcomes: true (1) (active), false (0) (inactive)

Study these solved cases before continuing.
O=C(NCCc1ccc(Cl)cc1)c1ccc2c(c1)N(Cc1ccc(F)cc1)C(=O)CS2	true (1)
Cc1nc2ccccn2c(=O)c1NC(=O)c1c(F)cccc1F	false (0)
Cc1ccc(C2(C)NC(=O)N(CC(=O)Nc3ccccc3C(=O)N3CCCCC3)C2=O)cc1 (centres undefined)	false (0)
O=C(COC(=O)CCc1ccc(S(=O)(=O)N2CCOCC2)cc1)Nc1cccc(Cl)c1	false (0)

Fill in: this test's call for `O=C(Cc1ccsc1)N1CCN(S(=O)(=O)c2cc(C(F)(F)F)cc(C(F)(F)F)c2)CC1` is ___
false (0)

What did the test return for `Nc1cc(=O)n(Cc2ccccc2)c(=O)n1Cc1ccccc1` ?
false (0)

Kindly provide the recorded test outcome for the following compound: `Cc1ccc(N/N=C2\COC(C)(C)CC2=O)cc1`
false (0)
